test system: RKO; assay: Cytotoxicity against human RKO cells assessed as growth inhibition incubated for 68 hrs by MTT assay; format: functional, cell-based
Numbered stars: 1 amine (or outer) side, 2 acyl side, 3 side chain; on linkers, the order of the positions; unused ones are H or OH. Bridge positions count the residues as written; N and C are the ends. Square brackets hold non-standard residues; d marks the D form. Peptide text beside a SMILES is read from it. I, II: the chains in the order shown. Actinocin(1to9) = Cc1c2oc3c(C)ccc(C(=O)[*:2])c3nc-2c(C(=O)[*:1])c(N)c1=O; NMeV = CN[C@H](C(=O)O)C(C)C; Sar = CNCC(=O)O
readoutLabel: pIC50
pIC50 here: minus log base 10 of the concentration, concentration in moles per litre.

- compound: "CC(C)[C@H]1C(=O)O[C@H](C)[C@H](NC(=O)c2c3nc4c(C(=O)N[C@@H]5C(=O)N[C@H](C(C)C)C(=O)N6CCC[C@H]6C(=O)N(C)CC(=O)N(C)[C@@H](C(C)C)C(=O)O[C@@H]5C)ccc(I)c4oc-3cc(=O)c2N)C(=O)N[C@H](C(C)C)C(=O)N2CCC[C@H]2C(=O)N(C)CC(=O)N1C"
  pIC50: 7.00

Let's switch to this compound now.
Notebook: Cc1c2oc3c(C)ccc(C(=O)N[C@@H]4C(=O)N[C@H](C(C)C)C(=O)N5CCC[C@H]5C(=O)N(C)CC(=O)N(C)[C@@H](C(C)C)C(=O)O[C@@H]4C)c3nc-2c(C(=O)N[C@@H]2C(=O)N[C@H](C(C)C)C(=O)N3CCC[C@H]3C(=O)N(C)CC(=O)N(C)[C@@H](C(C)C)C(=O)O[C@@H]2C)c(N)c1=O [DACTINOMYCIN] (I: T[dV]P[Sar][NMeV] / II: T[dV]P[Sar][NMeV]; ester I:1-I:C, II:1-II:C; linker I:N-II:N via Actinocin(1to9)) , pIC50 read as 7.52

---

Listing: MIC of selected compounds
tested on: Staphylococcus aureus; assay: Antimicrobial activity against Staphylococcus aureus Sau 745524 assessed as inhibition of bacterial growth incubated for 16 to 18 hrs by broth micro dilution technique; assay type: functional; conditions: time 16-18 hrs
Express the result in µg/mL but write the number alone.

- mol: "CC(C)[C@H]1C(=O)O[C@H](C)[C@H](NC(=O)c2c3nc4c(C(=O)N[C@@H]5C(=O)N[C@H](C(C)C)C(=O)N6CCC[C@H]6C(=O)N(C)CC(=O)N(C)[C@@H](C(C)C)C(=O)O[C@@H]5C)ccc(Br)c4oc-3c(Br)c(=O)c2N)C(=O)N[C@H](C(C)C)C(=O)N2C[C@@H](O)C[C@H]2C(=O)N(C)CC(=O)N1C"
  MIC, µg/mL: 16
- mol: "CC(C)[C@H]1C(=O)O[C@H](C)[C@H](NC(=O)c2c3nc4c(C(=O)N[C@@H]5C(=O)N[C@H](C(C)C)C(=O)N6CCC[C@H]6C(=O)N(C)CC(=O)N(C)[C@@H](C(C)C)C(=O)O[C@@H]5C)ccc(I)c4oc-3cc(=O)c2N)C(=O)N[C@H](C(C)C)C(=O)N2CCC[C@H]2C(=O)N(C)CC(=O)N1C"
  MIC, µg/mL: 0.5

In the following, a different compound is considered.
Item: CC(C)[C@H]1C(=O)O[C@H](C)[C@H](NC(=O)c2c3nc4c(C(=O)N[C@@H]5C(=O)N[C@H](C(C)C)C(=O)N6CCC[C@H]6C(=O)N(C)CC(=O)N(C)[C@@H](C(C)C)C(=O)O[C@@H]5C)ccc(I)c4oc-3c(I)c(=O)c2N)C(=O)N[C@H](C(C)C)C(=O)N2CCC[C@H]2C(=O)N(C)CC(=O)N1C | MIC: 2
